# MEASURED ON: T1, human CD3 on CD3+ Jurkat cells (human, UniProt P07766 23-207)
# T1 construct: whole, on cells; Native CD3 complex on cells; the other CD3 chains are not specified for this assay; also called Human CD3+ Jurkat
# METHOD NOTES: flow cytometry, 100 nM IgG on CD3+ Jurkat cells, pH 7.4
VALUE KIND: MFI pH 7.4 (MFI)

>>> quantitative_readout("SAD10318_P01_F03 (ADI-48589) (antibody, V domains shown, IgG; also called Ab80) VH: QVQLVQSGAEVKKPGASVKVSCKASGFNIKDYYMHWVRQAPGQRLEWMGWIDLENANTIYDAKFQGRVTITRDTSASTAYMELSSLRSEDTAVYYCARDAHGRYFYDHWGQGTLVTVSS VL: DIVMTQSPDSLAVSLGERATINCKSSQSLLNAHTGHNYLAWYQQKPGQPPKLLIYWASTRESGVPDRFSGSGSGTDFTLTISSLQAEDVAVYYCKQSYSHRTFGGGTKVEIK")
475
>>> quantitative_readout("SAD10319_P02_H06 (ADI-48633) (antibody, V domains shown, IgG; also called Ab16) VH: QVQLVQSGAEVKKPGASVKVSCKASGYTFTAYVMHWVRQAPGQRLEWMGSIDAGTGNTKYSQKFQGRVTITRDTSASTAYMELSSLRSEDTAVYYCARDAYGHYFYDHWGQGTLVTVSS VL: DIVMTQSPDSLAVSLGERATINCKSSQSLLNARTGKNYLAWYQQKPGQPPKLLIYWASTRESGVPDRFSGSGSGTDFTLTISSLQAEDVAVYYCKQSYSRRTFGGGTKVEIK")
1450
>>> quantitative_readout("SAD10318_P03_C09 (ADI-48609) (antibody, V domains shown, IgG; also called Ab205) VH: QVQLVQSGAEVKKPGASVKVSCKASGFNIKDYYMHWVRQAPGQRLEWMGWIDLENANTIYDAKFQGRVTITRDTSASTAYMELSSLRSEDTAVYYCARDAYHRYFYDHWGQGTLVTVSS VL: DIVMTQSPDSLAVSLGERATINCKSSQSLLNAHTGKNHLAWYQQKPGQPPKLLIYWASTRESGVPDRFSGSGSGTDFTLTISSLQAEDVAVYYCKQSYHHRTFGGGTKVEIK")
37
>>> quantitative_readout("SAD10318_P01_A03 (ADI-48587) (antibody, V domains shown, IgG; also called Ab36) VH: QVQLVQSGAEVKKPGASVKVSCKASGFNIKDYYMHWVRQAPGQRLEWMGWIDLENANTIYDAKFQGRVTITRDTSASTAYMELSSLRSEDTAVYYCARDHYHRYFYDVWGQGTLVTVSS VL: DIVMTQSPDSLAVSLGERATINCKSSQSLLNARTGHNYLAWYQQKPGQPPKLLIYWASTRESGVPDRFSGSGSGTDFTLTISSLQAEDVAVYYCKQSHSHRTFGGGTKVEIK")
66
>>> quantitative_readout("SAD10318_P02_B05 (ADI-48596) (antibody, V domains shown, IgG; also called Ab179) VH: QVQLVQSGAEVKKPGASVKVSCKASGFNIKDYYMHWVRQAPGQRLEWMGWIDLENANTIYDAKFQGRVTITRDTSASTAYMELSSLRSEDTAVYYCARDAYGRHFYDHWGQGTLVTVSS VL: DIVMTQSPDSLAVSLGERATINCKSSQSLLNAHTGKNYLAWYQQKPGQPPKLLIYWASTRESGVPDRFSGSGSGTDFTLTISSLQAEDVAVYYCKQSYSRRTFGGGTKVEIK")
828

# credit: patent US20220380463A1
